# tgt: PD-L1 on CT26 murine colon cancer cells (mouse (CT26)) (UniProt Q9EP73)
# Sequence (Q9EP73 19-290): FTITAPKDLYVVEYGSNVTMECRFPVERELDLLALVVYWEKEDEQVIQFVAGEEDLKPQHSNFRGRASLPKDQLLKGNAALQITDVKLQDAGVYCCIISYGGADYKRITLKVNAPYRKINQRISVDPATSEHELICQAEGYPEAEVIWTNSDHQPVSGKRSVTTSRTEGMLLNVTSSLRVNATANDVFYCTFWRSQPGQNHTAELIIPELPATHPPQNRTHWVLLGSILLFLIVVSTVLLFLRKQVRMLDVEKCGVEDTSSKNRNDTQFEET
# experiment.notes: flow cytometry on CT26 cells
# cond: apparent Kd on whole cells, PBS, room temperature, 30 min, 2x10^5 CT26 cells in 250 uL, three PBS washes, Y = Bmax X/(Kd + X), n = 2
measured.attribute: Kd
Answer with the figure and its unit, nothing else.

Input: Give recorded Kd. ACGGGCCACATCAACTCATTGATAGACAATGCGTCCACTGCCCGT [free PD-L1 aptamer (Apt)]
Output: 283 nM
